Source of measurements: the NIST ThermoML archive (doi:10.1021/je800218g)

- experiment-notes: activity coefficient (dimensionless); of the first substance listed, at infinite dilution; xn = mol fraction of the nth substance listed
- applied-conditions: 323.15 K; Liquid; Chromatography; x1 = 0
assay-endpoint: activity coefficient
Give bare numbers.

The following molecules have reported results that may help.
C1CCCCC1 [cyclohexane] + CCn1cc[n+](C)c1.F[B-](F)(F)F : 49.7
CCCCCCCCCC [decane] + CCn1cc[n+](C)c1.F[B-](F)(F)F : 861

# batch: return activity coefficient for each of the 4 molecules below
1. C1CCOC1 [tetrahydrofuran] + CCn1cc[n+](C)c1.F[B-](F)(F)F
2. C=Cc1ccccc1 [styrene] + CCn1cc[n+](C)c1.F[B-](F)(F)F
3. Cc1cccc(C)c1 [1,3-dimethylbenzene] + CCn1cc[n+](C)c1.F[B-](F)(F)F
4. C1COCCO1 [1,4-dioxane] + CCn1cc[n+](C)c1.F[B-](F)(F)F

1. 1.83
2. 3.49
3. 5.57
4. 1.42
